Values from ChEMBL document CHEMBL2202962

- measurement.description: Octanol-water partition coefficient, log D of the compound by HPLC analysis
measurement.type: logD

{"columns": ["compound", "logD"],
 "data": [
  ["COCC[C@H](Oc1ncnc2c1cnn2-c1ccccc1OC)C(=O)Nc1ccc(C)cn1", 3.5],
  ["COCC[C@H](Oc1ncnc2c1cnn2-c1ccccc1Cl)C(=O)Nc1ccc(C)cn1", 3.9],
  ["O=C(CSc1ncnc2c1cnn2-c1ccccc1Cl)Nc1ccccc1", 4.3],
  ["COCCC(Oc1ncnc2c1cnn2-c1ccccc1C)C(=O)Nc1ccc(C)cn1 (racemic)", 4.2],
  ["COCCC(Oc1ncnc2c1cnn2-c1ccccc1OC)C(=O)Nc1ccc(C)cn1 (racemic)", 3.5]
]}

I = COCCOCCC(Sc1ncnc2c1cnn2-c1ccccc1Cl)C(=O)Nc1nc(C)cs1 (racemic)
II = O=C(CSc1ncnc2c1cnn2-c1ccccc1Cl)Nc1ncccn1
Problem: Given the entries I and II , determine which has the lower reported logD. # respond with the chosen item's label II
